Cited source: patent US20230242520A1

Biological target: human cGAS (residues 161-522) (Homo sapiens, UniProt Q8N884)
Construct: Recombinantly expressed purified human cGAS (residues 161-522) was used at 25 nM
Sequence (Q8N884 161-522): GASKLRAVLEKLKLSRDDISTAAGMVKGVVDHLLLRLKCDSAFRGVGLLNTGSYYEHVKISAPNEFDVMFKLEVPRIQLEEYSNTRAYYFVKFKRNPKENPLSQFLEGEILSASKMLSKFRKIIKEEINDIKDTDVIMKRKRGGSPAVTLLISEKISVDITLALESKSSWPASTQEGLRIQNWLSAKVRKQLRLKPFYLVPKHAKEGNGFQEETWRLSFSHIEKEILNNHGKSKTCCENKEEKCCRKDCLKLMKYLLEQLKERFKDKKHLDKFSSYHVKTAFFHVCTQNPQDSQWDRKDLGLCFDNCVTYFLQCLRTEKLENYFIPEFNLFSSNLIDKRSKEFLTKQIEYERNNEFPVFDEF
Experiment: cGAS Activity Assay - Malachite Green (coupled enzymatic assay, phosphate detection)
Conditions: recombinant human cGAS 25 nM, 80 μM ATP, 80 μM GTP, 100 nM ISD, 4 hour at RT
Examples of molecules with documented log10(IC50) follow.
Quick note: numbers are log10 of IC50, with nM as the unit.

Known results for molecules:
{"Compound": "Cc1oncc1/C(O)=C(\\C#N)C(=O)Nc1cccc2ccccc12", "Reported": 3.25}
{"Compound": "Cc1oncc1/C(O)=C(\\C#N)C(=O)Nc1nc2c(c(-c3ccccc3)n1)CCCC2", "Reported": 2.99}
{"Compound": "Cc1nc(NC(=O)/C(C#N)=C(\\O)c2cnoc2C)nc2c1CS(=O)(=O)CC2", "Reported": 2.65}
{"Compound": "COC(=O)c1ccc(NC(=O)/C(C#N)=C(\\O)c2conc2C)cc1", "Reported": 3.05}
{"Compound": "Cc1nocc1/C(O)=C(\\C#N)C(=O)Nc1ccc(C(F)(F)F)cc1", "Reported": 3.60}

Q) What does the record list as log10(IC50) for COc1cccc(-c2cc3cc(NC(=O)/C(C#N)=C(\O)c4cnoc4C)ccc3c(=O)[nH]2)c1 ?
A) 3.03

Q) Which log10(IC50) value belongs to Cc1sncc1/C(O)=C(\C#N)C(=O)Nc1ccc(C(F)(F)F)cc1 ?
A) 3.68

Q) For Cc1cnoc1/C(O)=C(\C#N)C(=O)Nc1ccc(C(F)(F)F)cc1 , what is its reported log10(IC50)?
A) 3.93

Q) Fill blank: measured log10(IC50) of the molecule Cc1oncc1/C(O)=C(\C#N)C(=O)Nc1ccn(C)c(=O)c1 is ____.
A) 2.23
